- system.tested: Methanococcus maripaludis chaperonin (MmCpn)
- measurement.description: High-Throughput Screening for Modulators of Cytosolic Chaperonin Activity: MmCpn Primary Screen (AID 488978);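 note: 50 nM MmCpn enzyme hydrolysing 30 µM ATP at 37 °C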
- condition.summary: Purified MmCpn ATPase activity, ADP HTRF detection, 10 min; series mostly up to 76.9 µM
Calls of active or inactive are those of the source. Calls come from the whole dose curve; as a rule, active = well fitted curve in the direction sought with a large enough effect; inconclusive = small, poorly fitted or top-dose-only effect, or another doubt; inactive = no such curve, though single readings can be large or run the other way.
result.type: outcome

Here is how some compounds turned out for outcome.
Q. Would you kindly share the measured outcome for OC(CCN1CCCCC1)(c1ccccc1)C1CC2C=CC1C2 (stereo unspecified) ?
A. inactive

Q. Would you kindly share the measured outcome for Oc1ccc(C2CNCCc3c2cc(O)c(O)c3Cl)cc1 (stereo unspecified) ?
A. inactive

Q. Recorded outcome for `Cc1[nH]c(=O)c(C#N)cc1-c1ccncc1` , please?
A. inactive

Q. // lookup outcome for `NCCc1ccc(O)c(O)c1`
A. inactive

Q. Report outcome for `C1COC(NC(C2CC2)C2CC2)=N1` please.
A. inactive

Q. Look up outcome for this compound: `CCOC(=O)C1=C[C@]2(CC)CCCN3CCc4c(n1c1ccccc41)[C@@H]32`
A. inactive

Q. Any idea what outcome was measured for `c1ccc([C@H]2CN3CCSC3=N2)cc1` ?
A. inactive

Q. Which outcome is reported for this compound? NCCCC(N)(C(=O)O)C(F)F (stereo unspecified)
A. inactive

Q. Find the recorded outcome belonging to `NC(N)=NC(=O)c1nc(Cl)c(N)nc1N` and report it.
A. inactive

Q. Requested read-out: outcome. Entry: `CCOC(=O)N1CCC(=C2c3ccc(Cl)cc3CCc3cccnc32)CC1`
A. inactive

Continue with the compound presented below.
Q. Report outcome for Cc1ccccc1C(OCCN(C)C)c1ccccc1 (stereo unspecified) please.
A. inactive

---

- system.tested: Pyruvate kinase PKM (Homo sapiens)
- measurement.description: qHTS Assay for Activators of Human Muscle Pyruvate Kinase (AID 954)
- condition.summary: purified human muscle pyruvate kinase, luciferase-coupled luminescence, 1 h; series mostly up to 57.5 µM
Calls of active or inactive are those of the source. Calls follow the shape of the dose curve; as a rule, active = well fitted curve in the direction sought with a large enough effect (not every such curve was filed as active); inconclusive = small, poorly fitted or top-dose-only effect, or effect the other way, or another doubt; inactive = no such curve, though single readings can be large or run the other way.
result.type: outcome

Q. Given `Cc1[nH]c(=O)c(C#N)cc1-c1ccncc1` , state its recorded outcome.
A. inactive

Q. Endpoint output: outcome of `Nc1ccc(S(=O)(=O)Nc2ccnn2-c2ccccc2)cc1` . Value?
A. inactive

Q. What does the data say about its outcome? Entry: `C[C@]12CCC(=O)C=C1CC[C@@H]1[C@@H]2[C@@H](O)C[C@@]2(C)[C@H]1CC[C@]2(O)C(=O)CO`
A. inactive

Q. Item `NC(N)=NC(=O)c1nc(Cl)c(N)nc1N` has what recorded outcome?
A. inactive

Q. I would be grateful if you could share the reported outcome for `Clc1cccc(Cl)c1NC1=NCCN1` .
A. inactive

Q. Find the recorded outcome belonging to `Cc1[nH]c(=O)c(C#N)cc1-c1ccc2nccn2c1` and report it.
A. inactive

Q. outcome for `NC[C@H](O)c1ccc(O)c(O)c1` ?
A. inactive

Q. // query outcome value for entry `O=c1[nH]cnc2[nH]ncc12`
A. inactive

Q. Bench note: what outcome did `NCCc1ccc(O)c(O)c1` show?
A. inactive

Q. State the recorded outcome for this entry: `O=NN(CCCl)C(=O)NCCCl`
A. inactive

For every listed record, write down its outcome.
1. Cc1cn[nH]c1
2. NC(=O)c1cnccn1
3. O=C1CCc2cc(OCCCCc3nnnn3C3CCCCC3)ccc2N1
4. Cc1ccc(N(CC2=NCCN2)c2cccc(O)c2)cc1
5. CCCCNc1cc(C(=O)O)cc(S(N)(=O)=O)c1Oc1ccccc1
6. CNC[C@H](O)c1cccc(O)c1

A.
1: inactive; 2: inactive; 3: inactive; 4: inactive; 5: inactive; 6: inactive

For each of the compounds below, note its outcome.
1. N=c1nc(N2CCCCC2)cc(N)n1O
2. N[C@@H]1CONC1=O
3. Cc1oncc1C(=O)Nc1ccc(C(F)(F)F)cc1

A.
1: inactive; 2: inactive; 3: inactive

Give me outcome for each of these compounds, listed below.
1. CN1CCN(CCCN2c3ccccc3Sc3ccc(C(F)(F)F)cc32)CC1
2. CC(C)(Sc1ccc(CCN(CCCCC2CCCCC2)C(=O)NC2CCCCC2)cc1)C(=O)O
3. Cn1cnc([N+](=O)[O-])c1Sc1ncnc2nc[nH]c12
4. CCOC(=O)C1=C[C@@]2(CC)CCCN3CCc4c(n1c1ccccc41)[C@H]32
5. Nc1nc2c(ncn2COCCO)c(=O)[nH]1

A.
1. inactive
2. inactive
3. inactive
4. inactive
5. inactive

---

- measurement.description: Identifying Small Molecule Inhibitors of Pancreatic Cancer Stem Cells (A2780, Spheroid) (AID 1259357);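 note: spheroids pre-formed over 14 days in stem cell medium on hydrogel; compound exposure lasted 48 h before the ATP luminescence read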
- condition.summary: A2780 spheroid viability; series mostly up to 46.1 µM
Inconclusive results are not listed. The source made the active and inactive calls. Calls follow the shape of the dose curve; as a rule, active = well fitted cell-killing curve with a large enough effect; inconclusive = small, poorly fitted or top-dose-only effect, or effect the other way, or another doubt; inactive = no such curve, though single readings can be large or run the other way.
Classes to choose from: active, inactive

Solved cases below.
Q. Hello, I am checking results. What call was entered for `COc1ccc(-c2c(-c3ccc(O)cc3O)n[nH]c2C)cc1` ?
A. inactive

Q. Dear all, I need the recorded test outcome for `O=C(C=Cc1ccc(/C=C/C(=O)Nc2ccc(C3=NCCN3)cc2)cc1)Nc1ccc(C2=NCCN2)cc1` , thank you.
A. inactive

Q. Name the outcome recorded for `CNC(=O)c1ccc(N2C(=S)N(c3ccc(C#N)c(C(F)(F)F)c3)C(=O)C2(C)C)cc1F` in the assay.
A. active

Q. Any idea what this test logged for `O=C(O)c1ccc(-c2c[nH]c3ccc(-c4ccccc4)cc23)cc1C1CCCC1` ?
A. inactive

Q. Status in this test for `CN[C@@H](C)C(=O)N[C@H]1CCCC[C@H]2CC[C@@H](C(=O)N[C@@H](c3ccccc3)c3cn(CCCCc4ccc(CCCCn5cc([C@@H](NC(=O)[C@@H]6CC[C@@H]7CCCC[C@H](NC(=O)[C@H](C)NC)C(=O)N76)c6ccccc6)nn5)cc4)nn3)N2C1=O` ?
A. inactive

---
Q. For `CCCS(=O)(=O)Nc1ccc(F)c(C(=O)c2c[nH]c3ncc(Cl)cc23)c1F` , what call appears in the results of this test?
A. inactive

Q. For `Cc1csc(NC(=O)c2sc3nc4c(c(C(F)(F)F)c3c2N)CCC4)n1` , which call appears in the assay record?
A. inactive

Q. Could you please tell me the result logged for `C[C@]12CCC(=O)C=C1CC[C@@H]1[C@@H]2[C@@H](O)C[C@@]2(C)[C@H]1CC[C@]2(O)C(=O)CO` in this assay?
A. inactive

Q. // outcome(item) with item = `CCC(=O)N[C@H]1CC[C@H](C(=O)N(C)c2ccc(-c3nc4ccccc4o3)cc2)C1`
A. active

Q. Look up the recorded call for C[C@@H]1C[C@H]2[C@@H]3CCC4=CC(=O)C=C[C@]4(C)C3(F)[C@@H](O)C[C@]2(C)[C@@]1(O)C(=O)CO (some centres not stated) in this test.
A. inactive

Q. What did this assay record as the result for `Oc1cccc(-c2nc(N3CCOCC3)c3oc4ncccc4c3n2)c1` ?
A. active

Q. Tell me the assay call for `COc1ccc(-c2ccc3c(N4CCOC[C@H]4C)nc(N4CCOC[C@H]4C)nc3n2)cc1CO` please.
A. active

---

- measurement.description: qHTS of pediatric cancer cell lines to identify multiple opportunities for drug repurposing: Primary screen for BT-12 cells (AID 1347101); note: nearly all actives have a fitted effect of over 25% in size; note: potency is the fitted concentration of half-maximal effect
- condition.summary: BT-12 viability, CellTiter-Glo luminescence, 48 h; series mostly up to 57.3 µM
- Experimental: Drug repurposing or repositioning has been offered as a strategy for drug development in oncology programs. […] [1] Shen, M et al. Quantitative high-throughput phenotypic screening of pediatric cancer cell lines identifies multiple opportunities for drug repurposing. […] Cells were assayed in growth media at a density of 500-1,000 cells/well. […] After a 15 min incubation at room temperature, samples were analyzed for luminescence intensity using a ViewLux High-throughput CCD imager equipped with clear filters.
Inconclusive results are not listed. Activity calls are given as the source filed them. Calls follow the shape of the dose curve; as a rule, active = well fitted cell-killing curve with a large enough effect; inconclusive = small, poorly fitted or top-dose-only effect; inactive = flat fitted curve, though single readings scatter.
result.type: Potency

Some molecules with recorded Potency:
Q. Recorded Potency for `O=C(C=Cc1ccc(/C=C/C(=O)Nc2ccc(C3=NCCN3)cc2)cc1)Nc1ccc(C2=NCCN2)cc1` , please?
A. inactive

Q. Look up Potency for this molecule: OC(CCN1CCCCC1)(c1ccccc1)C1CC2C=CC1C2 (stereo not given)
A. inactive

Q. Requested read-out: Potency. Entry: CC(C)NCC(O)COc1ccc(COCCOC(C)C)cc1 (stereo not given)
A. inactive

Q. // Potency lookup, key: OC(CN1CCC(Cc2ccc(F)cc2)CC1)c1ccc(Cl)cc1 (stereo not given)
A. inactive

Next:
Q. Data request, read-out Potency, for `C#Cc1cccc(Nc2ncnc3cc(OCCOC)c(OCCOC)cc23)c1`
A. 24.3 µM (active)

---

- Tested on: HEK293
- measurement.description: Cytotoxic Profiling of Annotated Libraries Using Quantitative High-Throughput Screening (AID 1296008); note: nearly all actives have a fitted effect of over 60% in size
- condition.summary: Five cell lines viability, CellTiter-Glo ATP luminescence, 48-72 h
Inconclusive results are not listed. Active and inactive are the calls of the source. The call rests on the fitted dose curve; in most records, active means well fitted inhibition curve with a large enough effect; inconclusive means small, poorly fitted or top-dose-only effect; inactive means flat fitted curve, though single readings scatter.
Entry note: the call must match one of active, inactive

Q. Short answer needed: outcome of this test for `CCCc1nc2c(C)cc(-c3nc4ccccc4n3C)cc2n1Cc1ccc(-c2ccccc2C(=O)O)cc1` ?
A. inactive

Q. What did the test return for `CC(C=CC1=C(C)CCCC1(C)C)=CC=CC(C)=CC(=O)O` ?
A. inactive

Q. Could you check what this test reported for `CO[C@@H]1[C@H](N(C)C(=O)c2ccccc2)C[C@H]2O[C@]1(C)n1c3ccccc3c3c4c(c5c6ccccc6n2c5c31)C(=O)NC4` ?
A. active

Q. What outcome does the record of this test show for `NC(=O)c1cnccn1` ?
A. inactive

Q. Field: outcome | Entry: `Cc1cc2c(F)c(Oc3ncnn4cc(OC[C@@H](C)O)c(C)c34)ccc2[nH]1`
A. active

Others:
Q. I would be grateful if you could indicate the recorded call for `Cc1c(CN2CCN(C(=O)C(C)C)CC2)sc2c(N3CCOCC3)nc(-c3cnc(N)nc3)nc12` .
A. active

Q. Please share the test call associated with CCC(C)n1ncn(-c2ccc(N3CCN(c4ccc(OC[C@H]5CO[C@](Cn6cncn6)(c6ccc(Cl)cc6Cl)O5)cc4)CC3)cc2)c1=O (some centres undefined) .
A. active

Q. Please state the recorded outcome for this compound: `COc1ccc(-c2ccc3c(N4CCOC[C@H]4C)nc(N4CCOC[C@H]4C)nc3n2)cc1CO`
A. active

Q. Give the logged outcome of this assay for the following compound: `COc1ccc([C@@H]2CC(=O)c3c(O)cc(O[C@@H]4O[C@H](CO[C@@H]5O[C@@H](C)[C@H](O)[C@@H](O)[C@@H]5O)[C@@H](O)[C@H](O)[C@@H]4O)cc3O2)cc1O`
A. inactive
